- method-notes: The drug is tested on WLS-240 corresponding to human gut metagenome with ENA study accession number: PRJEB37062 and ENA sample accession number: ERS12561773 for biotransformation under anaerobic condition. The drug concentrations were measured over 9 timepoints collected between 0 and 24 hours of incubation by liquid-chromatography-coupled mass spectrometry (LC–MS); note: call rule not given here
- measurement-parameters: 2 µM

# molecule, Bacterial Biotransformation
rows = [
    ("C#C[C@]1(OC(C)=O)CC[C@H]2[C@@H]3CCC4=C/C(=N/O)CC[C@@H]4[C@H]3CC[C@@]21CC [NORGESTIMATE]", "Compound metabolized"),
    ("CCCN(CCC)CCc1cccc2c1CC(=O)N2", "Compound NOT metabolized"),
    ("CC#C[C@]1(O)CC[C@H]2[C@@H]3CCC4=CC(=O)CCC4=C3[C@@H](c3ccc(N(C)C)cc3)C[C@@]21C", "Compound metabolized"),
    ("N=C(N)NC(=O)Cc1c(Cl)cccc1Cl", "Compound NOT metabolized"),
]

* * *

- method-notes: The drug is tested on WLS-098 corresponding to human gut metagenome with ENA study accession number: PRJEB37062 and ENA sample accession number: ERS12561754 for biotransformation under anaerobic condition. The drug concentrations were measured over 9 timepoints collected between 0 and 24 hours of incubation by liquid-chromatography-coupled mass spectrometry (LC–MS)
- measurement-parameters: 2 µM

# compound, Bacterial Biotransformation
measured = [
    ("C#C[C@]1(OC(C)=O)CC[C@H]2[C@@H]3CCC4=C[C@@H](OC(C)=O)CC[C@@H]4[C@H]3CC[C@@]21C [ETHYNODIOL DIACETATE]", "Compound metabolized"),
    ("CCc1oc2ccccc2c1C(=O)c1cc(Br)c(O)c(Br)c1 [BENZBROMARONE]", "Compound metabolized"),
    ("CC(=O)O[C@]1(C(C)=O)CC[C@H]2[C@@H]3C=C(C)C4=CC(=O)CC[C@]4(C)[C@H]3CC[C@@]21C [MEGESTROL ACETATE]", "Compound metabolized"),
    ("CSc1ccc2c(c1)C(N1CCN(C)CC1)Cc1ccccc1S2.O=C(O)/C=C\\C(=O)O (stereo not given)", "Compound metabolized"),
    ("CN(CCOc1ccc(CC2SC(=O)NC2=O)cc1)c1ccccn1.O=C(O)/C=C\\C(=O)O (stereo not given) [ROSIGLITAZONE MALEATE]", "Compound metabolized"),
    ("Cc1nc(Nc2ncc(C(=O)Nc3c(C)cccc3Cl)s2)cc(N2CCN(CCO)CC2)n1 [DASATINIB ANHYDROUS]", "Compound metabolized"),
    ("O=C(NC(Cc1cc(=O)[nH]c2ccccc12)C(=O)O)c1ccc(Cl)cc1 (stereo not given) [REBAMIPIDE]", "Compound NOT metabolized"),
    ("O=C([O-])C[C@H](O)C[C@H](O)/C=C/c1c(C2CC2)nc2ccccc2c1-c1ccc(F)cc1.O=C([O-])C[C@H](O)C[C@H](O)/C=C/c1c(C2CC2)nc2ccccc2c1-c1ccc(F)cc1.[Ca+2] [PITAVASTATIN CALCIUM]", "Compound metabolized"),
    ("CCN(CC)CCNC(=O)c1cc(S(C)(=O)=O)ccc1OC [TIAPRIDE]", "Compound metabolized"),
    ("CC(=O)OCC(=O)NCCCOc1cccc(CN2CCCCC2)c1 [ROXATIDINE ACETATE]", "Compound metabolized"),
    ("CN1[C@@H]2CC[C@H]1C[C@@H](OC(=O)[C@H](CO)c1ccccc1)C2 [HYOSCYAMINE]", "Compound metabolized"),
    ("CCN(CC)CCOC(=O)C1(C2CCCCC2)CCCCC1 [DICYCLOMINE]", "Compound NOT metabolized"),
    ("CN[C@H]1CC[C@@H](c2ccc(Cl)c(Cl)c2)c2ccccc21 [SERTRALINE]", "Compound metabolized"),
    ("CC#CCn1c(N2CCC[C@@H](N)C2)nc2c1c(=O)n(Cc1nc(C)c3ccccc3n1)c(=O)n2C [LINAGLIPTIN]", "Compound NOT metabolized"),
    ("CN1CCC[C@@H]1CCO[C@](C)(c1ccccc1)c1ccc(Cl)cc1.O=C(O)/C=C/C(=O)O [CLEMASTINE FUMARATE]", "Compound metabolized"),
]
